Here's what we have: pIC50 numbers for hMAO-A (Homo sapiens).
Answers are plain numbers, as −log10 of the molar value.

- substance-smiles: "COc1cccc2cc(/C(C)=N/NC(=O)c3cccc(Cl)c3)c(=O)oc12"
  quantity: "pIC50"
  result-value: 5.74
- substance-smiles: "COc1cccc2cc(/C(C)=N/NC(=O)c3cccs3)c(=O)oc12"
  quantity: "pIC50"
  result-value: 5.60
- substance-smiles: "COc1cccc2cc(/C(C)=N/NC(=O)c3cc4ccccc4cc3O)c(=O)oc12"
  quantity: "pIC50"
  result-value: 5.84

Continue with the next molecule.
COc1cccc2cc(/C(C)=N/NC(=O)c3ccccn3)c(=O)oc12 tested on hMAO-A (Homo sapiens) gave pIC50: 5.78
